Catalogue of pKi values
Target: Aurora-2 (Homo sapiens)
Sequence (O14965 whole entry): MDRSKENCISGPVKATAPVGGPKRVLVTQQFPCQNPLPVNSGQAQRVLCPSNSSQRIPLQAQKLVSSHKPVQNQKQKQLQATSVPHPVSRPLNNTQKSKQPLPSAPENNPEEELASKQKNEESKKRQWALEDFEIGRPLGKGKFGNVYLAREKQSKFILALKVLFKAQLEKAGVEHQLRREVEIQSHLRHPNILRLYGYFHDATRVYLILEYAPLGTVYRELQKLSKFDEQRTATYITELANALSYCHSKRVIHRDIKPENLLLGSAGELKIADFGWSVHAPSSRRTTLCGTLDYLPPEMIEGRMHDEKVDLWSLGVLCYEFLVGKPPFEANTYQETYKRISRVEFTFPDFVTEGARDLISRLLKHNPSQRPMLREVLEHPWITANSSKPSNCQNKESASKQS
pKi: −log10 of the molar value.

# COMPOUND, ENDPOINT VALUE
records = [
    ("Cc1cc(Nc2nc(Sc3ccc(F)cc3F)nc3ccccc23)n[nH]1 [IIa-12]", "> 7.00"),
    ("Cc1cc(Nc2nc(Sc3ccc(NS(=O)(=O)C(C)C)cc3)nc3ccccc23)n[nH]1 [IIa-48]", "> 7.00"),
    ("COC(=O)c1ccc(Sc2nc(Nc3cc(C4CC4)[nH]n3)c3ccccc3n2)cc1 [IIa-35]", "> 7.00"),
    ("Cc1cc(Nc2nc(Sc3ccc(NC(=O)CCN(C)C)cc3)nc3ccccc23)n[nH]1 [IIa-71]", "> 7.00"),
    ("c1ccc2c(Nc3cc(C4CC4)[nH]n3)nc(Oc3ccc4c(c3)CCCC4)nc2c1 [IIb-4]", "> 7.00"),
    ("Cc1cc(Nc2nc(Sc3ccccc3N)nc3ccccc23)n[nH]1 [IIa-20]", "6.00 to 7.00"),
    ("COC(=O)c1cccc(Sc2nc(Nc3cc(C4CC4)[nH]n3)c3ccccc3n2)c1 [IIa-22]", "> 7.00"),
    ("Cc1cc(Nc2nc(Sc3ccc(NC(=O)CCCN4CCOCC4)cc3)nc3ccccc23)n[nH]1 [IIa-64]", "> 7.00"),
]

Attention now shifts to the item below.
Notebook: pull reported pKi for Aurora-2 (Homo sapiens), entry CC(=O)Nc1ccc(Sc2nc(Nc3cc(C)[nH]n3)c3ccc(OCCCN(C)C)cc3n2)cc1 [IIa-75]
> 7.00
